Entry source: PubChem BioAssay AID504826

System: HEp-2 viability, luminescence (CellTiter-Glo)
experiment.summary: HEp-2 cell cytotoxicity, dose response, cytotoxicity control for RSV antiviral project, synthesized compounds, set 9 (AID 504826)
Listed compounds paired with reported CC50

Illustrative cases are given below, each with its answer.
COCCCNC(=O)c1ccc(Cn2c(=O)c3ccccc3n(Cc3ccc([N+](=O)[O-])cc3)c2=O)cc1 :: 115 µM
COCCCNC(=O)c1ccc(Cn2c(=O)c3ccccc3n(Cc3ccc(Br)cc3)c2=O)cc1 :: 126 µM
COCCCNC(=O)c1ccc(Cn2c(=O)c3ccccc3n(Cc3ccc(C(F)(F)F)cc3)c2=O)cc1 :: 95.7 µM
COc1ccccc1CNC(=O)C1CCN(S(=O)(=O)c2cccc3nonc23)CC1 :: 146 µM
Cc1ccc(C)c(NC(=O)[C@@H]2CCCN2S(=O)(=O)c2cccc3cccnc23)c1 :: 25 µM
COCCCNC(=O)c1ccc(Cn2c(=O)c3ccccc3n(Cc3ccc(OC)cc3)c2=O)cc1 :: 121 µM

Please find the next compound below.
Report CC50 for `COCCCNC(=O)c1ccc(Cn2c(=O)c3ccccc3n(Cc3ccc(C)c(C(F)(F)F)c3)c2=O)cc1` please.
75.2 µM
